FYI, the data here is from PubChem BioAssay AID256.

For each of the molecules below, state its T/C.
- System: CD2F1 mice, L1210 leukemia ip, survival T/C
- measurement-protocol: NCI In Vivo Anticancer Drug Screen. Data for tumor model L1210 Leukemia (intraperitoneal) in CD2F1 (CDF1) mice
- conditions: endpoint: mean survival time; dose: 200.0 mg/kg/injection; schedule: Q04DX003 (ip); vehicle: saline with Tween-80; higher = longer survival
Inconclusive results and toxic doses are left out.

IN: Returns the measured T/C for the input molecule. Input: CCCCC[CH2][Sn](=[O])[CH2]CCCCC
OUT: 97 % of control

IN: Also need COC(=O)/C(=C\c1ccccc1Cl)C(C)=O , thanks.
OUT: 98 % of control

IN: Also need CCOC(=O)/C=C/c1ccc2c(c1)OCO2 , thanks.
OUT: 94 % of control

IN: Also need COC(=O)N1c2ccc(C)cc2C=CC1C#N (configuration not stated) , thanks.
OUT: 105 % of control

IN: Also need Cc1cccc(NC(=S)N(C)C)c1 , thanks.
OUT: 102 % of control

IN: Also need c1ccc(Oc2ccc(-c3ccc(Oc4ccccc4)cc3)cc2)cc1 , thanks.
OUT: 95 % of control

IN: Also need COC(=O)c1cc2ccccc2o1 , thanks.
OUT: 108 % of control

====

- Tested on: CD2F1 mice, L1210 leukemia ip, survival T/C
- measurement-protocol: NCI In Vivo Anticancer Drug Screen. Data for tumor model L1210 Leukemia (intraperitoneal) in CD2F1 (CDF1) mice
- conditions: endpoint: mean survival time; dose: 200.0 mg/kg/injection; schedule: Q01DX001 (ip); vehicle: Klucel (hydroxypropylcellulose) (HPC); higher = longer survival
Toxic doses and inconclusive results are not listed.
readout-label: T/C

IN: Returns the measured T/C for the input compound. Input: CC1=CC(CO)C2C(=O)NC(=O)C2C1C (stereo unspecified)
OUT: 105 % of control

IN: Also need O=C(c1ccccc1)c1cc(-c2ccccc2)nc2ccccc2c2ccccc2[nH]1 , thanks.
OUT: 91 % of control

IN: Also need Brc1ccc(OCC(COc2ccc(Br)cc2)(COc2ccc(Br)cc2)COc2ccc(Br)cc2)cc1 , thanks.
OUT: 103 % of control

IN: Also need Nc1ncnc2nc(-c3ccc(OCc4ccccc4)cc3)[nH]c12 , thanks.
OUT: 89 % of control

IN: Also need Cc1ccc(N2CC(O)CSC2=Nc2ccccc2)cc1 (stereo unspecified) , thanks.
OUT: 91 % of control

IN: Also need S=C(Nc1ccc(Cl)cc1)Nc1ccc(Cc2ccc(NC(=S)Nc3ccc(Cl)cc3)cc2)cc1 , thanks.
OUT: 92 % of control

====

- Test system: CD2F1 mice, L1210 leukemia ip, survival T/C
- measurement-protocol: NCI In Vivo Anticancer Drug Screen. Data for tumor model L1210 Leukemia (intraperitoneal) in CD2F1 (CDF1) mice
- conditions: endpoint: mean survival time; dose: 12.5 mg/kg/injection; schedule: Q01DX009 (ip); vehicle: saline with Tween-80; higher = longer survival
Inconclusive results and toxic doses are left out.
readout-label: T/C

IN: Returns the measured T/C for the input molecule. Input: COc1ccc(C(=O)CCN2CCC(O)(c3ccccc3)CC2)cc1
OUT: 93 % of control

IN: Also need O=C1C2CC=CCC2C(=O)N1SC(Cl)(Cl)Cl (stereo not drawn) , thanks.
OUT: 101 % of control

IN: Also need O=C(CNC(=O)Nc1cccc(C(F)(F)F)c1)N/N=C/c1c(O)ccc2ccccc12 , thanks.
OUT: 94 % of control

IN: Also need [O-][n+]1c(CN2CCCCC2)nc2cccc3c2c1-c1ccccc1-3 , thanks.
OUT: 104 % of control

IN: Also need O=C(OCCC[P+](c1ccccc1)(c1ccccc1)c1ccccc1)c1ccccc1 , thanks.
OUT: 114 % of control

IN: Also need COc1ccc(OC)c(CCN)c1 , thanks.
OUT: 101 % of control

IN: Also need CCCCCCCCCCCCNC(=O)C[n+]1cccc(C(=O)Nc2ccccc2)c1 , thanks.
OUT: 97 % of control

IN: Also need COc1ccc(N=NNc2ccc(OC)cc2)cc1 , thanks.
OUT: 96 % of control

IN: Also need c1ccc2c(c1)c1ccccc1n2CCCCn1c2ccccc2c2ccccc21 , thanks.
OUT: 95 % of control

IN: Also need CCCCC(/C=N/N=C/C(CC)CCCC)CC (stereo not drawn) , thanks.
OUT: 91 % of control

IN: Also need COc1ccc2[nH]c3c(C)c4cc[n+](C)cc4c(C)c3c2c1 , thanks.
OUT: 87 % of control

IN: Also need COc1cccnc1/C=N/NC(N)=S , thanks.
OUT: 152 % of control

IN: Also need COCCCNC1=C(C#N)C(=O)NC(c2cccc([N+](=O)[O-])c2)S1 (stereo not drawn) , thanks.
OUT: 94 % of control

====

- System: CD2F1 mice, L1210 leukemia ip, survival T/C
- measurement-protocol: NCI In Vivo Anticancer Drug Screen. Data for tumor model L1210 Leukemia (intraperitoneal) in CD2F1 (CDF1) mice
- conditions: endpoint: mean survival time; dose: 100.0 mg/kg/injection; schedule: Q01DX001 (ip); vehicle: saline; higher = longer survival
- Description: The antitumor activity of compounds was measured in mice bearing transplantable tumors. Survival or tumor size were measured and the results are expressed as the measurement made in the treated group (T) divided by the measurement made in the vehicle treated control group (C). The tumor model used in this assay is L1210 Leukemia (intraperitoneal) in CD2F1 (CDF1) mice
Toxic doses and inconclusive results are not listed.
readout-label: T/C

IN: Returns the measured T/C for the input compound. Input: O=C(NO)c1ccncc1
OUT: 103 % of control

IN: Also need CCCN(CCC)S(=O)(=O)c1ccc(NC(=O)Oc2ccccc2OC)cc1 , thanks.
OUT: 95 % of control

IN: Also need N=C1N(c2ccc(C(=O)NC(CCC(=O)O)C(=O)O)cc2)CC2CNc3nc(N)[nH]c(=O)c3N12 (centres undefined) , thanks.
OUT: 100 % of control

IN: Also need COc1ccc2ccccc2c1NC(C)=O , thanks.
OUT: 102 % of control

IN: Also need CC(C)C(C)c1ccccc1 (centres undefined) , thanks.
OUT: 100 % of control

IN: Also need CC(C)C(S(=O)(=O)c1ccccc1)S(=O)(=O)c1ccccc1 , thanks.
OUT: 105 % of control

IN: Also need CCOP(=[Se])(OCC)[Se][Se][Se]P(=[Se])(OCC)OCC , thanks.
OUT: 108 % of control

IN: Also need CCCCCCC1=C(O)C(=O)C(CCCCCC)=C(O)C1=O , thanks.
OUT: 100 % of control

IN: Also need OCC1OC(n2c(SCc3ccccc3)nc3ccccc32)C(O)C1O (centres undefined) , thanks.
OUT: 102 % of control

IN: Also need CC(=O)OC1COC(n2cnc3c(=S)nc[nH]c32)C(OC(C)=O)C1OC(C)=O (centres undefined) , thanks.
OUT: 97 % of control

IN: Also need O=C1OCC2(C(=O)O)C(=O)OCC12 (centres undefined) , thanks.
OUT: 106 % of control

IN: Also need Cc1nc(N)nc2ccccc12 , thanks.
OUT: 100 % of control

IN: Also need C=C(C)[C@@H]1CC[C@]2(CO)CC[C@]3(C)[C@H](CC[C@@H]4[C@@]5(C)CC[C@H](O)C(C)(C)[C@@H]5CC[C@]43C)[C@@H]12 , thanks.
OUT: 98 % of control

IN: Also need CCCC(C)N (centres undefined) , thanks.
OUT: 98 % of control

IN: Also need CCc1ccccc1OCC1CO1 (centres undefined) , thanks.
OUT: 102 % of control

IN: Also need OC(CN1CCOCC1)CN1CCOCC1 , thanks.
OUT: 104 % of control

IN: Also need Cc1ccc2nc(-c3ccc(NC(=O)c4ccc(C(=O)Nc5ccc(-c6nc7ccc(C)cc7s6)cc5)cc4)cc3)sc2c1 , thanks.
OUT: 89 % of control

IN: Also need CCCCCCCCC(CCCCCC)CCCCCCCC , thanks.
OUT: 96 % of control

IN: Also need CCCCSC(=N)N , thanks.
OUT: 113 % of control

IN: Also need COc1cc(-c2ccc(N=Nc3c(O)ccc4ccccc34)c(OC)c2)ccc1N=Nc1ccc2c(S(=O)(=O)O)cc(S(=O)(=O)O)c(N)c2c1O , thanks.
OUT: 94 % of control

IN: Also need O=C(O)CN(CC(=O)O)CC(O)CN(CC(=O)O)CC(=O)O , thanks.
OUT: 98 % of control

IN: Also need N#CC1CCCC1=N (centres undefined) , thanks.
OUT: 110 % of control

IN: Also need CN(C)c1ccc(C(=O)OOOOC(c2ccc(N(C)C)cc2)(c2ccc(N(C)C)cc2)c2ccc(N(C)C)cc2)cc1 , thanks.
OUT: 95 % of control

IN: Also need CCOC(=O)C1CNC(=O)C1=O (centres undefined) , thanks.
OUT: 106 % of control
